Each entry below carries its reported Plant response rating, Ducksalad.
System: ducksalad
Assay: Test C flooded paddy test
Type: in vivo, Heteranthera limosa
Details: Flood; 500 g ai/ha; scale 0 to 100
Text: Plant species in the flooded paddy test consisted of rice (Oryza sativa), sedge, umbrella (small-flower umbrella sedge, Cyperus difformis), ducksalad (Heteranthera limosa), and barnyardgrass (Echinochloa crus-galli) grown to the 2-leaf stage for testing. […] Treated plants and controls were maintained in a greenhouse for 13 to 15 days, after which time all species were compared to controls and visually evaluated. […]
Lab note: jot down the number only; don't add units.

Worked examples, 2 compounds total:
| Compound | Plant response rating, Ducksalad |
| --- | --- |
| O=C1NCC(c2ccc(F)c(C(F)(F)F)c2)C1C(=O)Nc1cccc(F)c1F (racemic) | 100 |
| O=C1NCC(c2ccc(F)c(F)c2)C1C(=O)Nc1cccc(F)c1F (racemic) | 100 |

Give recorded Plant response rating, Ducksalad. O=C1NCC(c2cccc(C(F)F)c2)C1C(=O)Nc1ccccc1C(F)(F)F (racemic) 75

Give recorded Plant response rating, Ducksalad. O=C1NCC(c2cccc(Cl)c2)C1C(=O)Nc1ccccc1F (racemic) 100

----------
Tested on: canarygrass
Assay: Test D pre-/postemergence herbicide test
Assay type: in vivo, Phalaris minor
Conditions: Preemergence; 31 g ai/ha; scale 0 to 100 (0 no effect, 100 complete control)
Description: […]
Property Name: Plant response rating, Canarygrass
Lab note: jot down the number only; don't add units.

| Compound | Plant response rating, Canarygrass |
| --- | --- |
| O=C1NCC(c2ccc(F)c(C(F)(F)F)c2)C1C(=O)Nc1cccc(F)c1F (racemic) | 25 |
| O=C1NCC(c2ccc(F)c(F)c2)C1C(=O)Nc1ccccc1C(F)(F)F (racemic) | 0 |
| O=C1NCC(c2ccc(C(F)(F)F)cc2)C1C(=O)Nc1cccc(F)c1F (racemic) | 5 |

Give recorded Plant response rating, Canarygrass. O=C1NCC(c2cc(F)c(F)cc2F)C1C(=O)Nc1cccc(F)c1F (centres unmarked) 0

Give recorded Plant response rating, Canarygrass. O=C1NCC(c2ccc(C(F)(F)F)cc2)C1C(=O)Nc1ccccc1F (centres unmarked) 0

----------
Each entry below carries its reported Plant response rating, Foxtail, Giant.
Test system: giant foxtail
Test: Test A pre-/postemergence herbicide test
Format: in vivo, Setaria faberii
Settings: Postemergence, 125 g ai/ha; 0 to 100 scale, 0 is no effect, 100 is complete control
Lab note: jot down the number only; don't add units.

Worked examples, 3 molecules total:
| Molecule | Test Result |
| --- | --- |
| COc1ccc(C2CNC(=O)C2C(=O)Nc2ccccc2F)cc1C(F)(F)F (racemic) | 40 |
| O=C1NCC(c2ccc(Cl)c(C(F)(F)F)c2)C1C(=O)Nc1ccccc1F (racemic) | 70 |
| COc1ccc(C2CNC(=O)C2C(=O)Nc2ccccc2C(F)(F)F)cc1F (racemic) | 0 |

Give recorded Plant response rating, Foxtail, Giant. CCc1cccc(C2CNC(=O)C2C(=O)Nc2ccccc2F)c1 (racemic) 60

Give recorded Plant response rating, Foxtail, Giant. CC(C)N1CC(c2ccc(F)cc2)C(C(=O)Nc2cccc(F)c2F)C1=O (centres unmarked) 0

Give recorded Plant response rating, Foxtail, Giant. O=C1NCC(c2ccc(OC(F)(F)F)cc2)C1C(=O)Nc1ccccc1F (racemic) 40

Give recorded Plant response rating, Foxtail, Giant. O=C1NCC(c2cccc(C(F)F)c2)C1C(=O)Nc1cccc(F)c1F (racemic) 70

Give recorded Plant response rating, Foxtail, Giant. O=C1NCC(c2cccc(C(F)(F)F)c2)C1C(=O)Nc1ccccc1Br (racemic) 70

----------
Test system: wheat
Assay: Test A pre-/postemergence herbicide test
Format: in vivo, Triticum aestivum
Conditions: preemergence; 500 g ai/ha; 0 to 100 scale, 0 is no effect and 100 is complete control
Property Name: Plant response rating, Wheat
Lab note: jot down the number only; don't add units.

Worked examples, 3 compounds total:
| Compound | Test Result |
| --- | --- |
| O=C1NCC(c2cccc(C(F)(F)F)c2)C1C(=O)Nc1ccccc1Br (racemic) | 30 |
| COc1cc(C2CNC(=O)C2C(=O)Nc2ccccc2F)ccc1F (racemic) | 0 |
| O=C1NCC(c2ccc(C(F)(F)F)cc2F)C1C(=O)Nc1cccc(F)c1F (racemic) | 0 |

We now examine a further compound.
Give recorded Plant response rating, Wheat. COc1ccc(C2CNC(=O)C2C(=O)Nc2ccccc2C(F)(F)F)cc1F (racemic) 0

----------
System: pigweed
Test: Test A pre-/postemergence herbicide test
Assay type: in vivo, Amaranthus retroflexus
Settings: Postemergence, 125 g ai/ha; 0 to 100 scale, 0 is no effect, 100 is complete control
Each entry below carries its reported Plant response rating, Pigweed.

| Compound | Test System | Test Result |
| --- | --- | --- |
| O=C1NCC(c2cccc(C(F)(F)F)c2)C1C(=O)Nc1ccccc1Br (racemic) [Compound 190] | pigweed | 0 |

We now examine a further compound.
Give recorded Plant response rating, Pigweed. CCCN1CC(c2ccc(C(F)(F)F)cc2)C(C(=O)Nc2cccc(F)c2F)C1=O (stereo not shown) [Compound 182] 0

----------
Each entry below carries its reported Plant response rating, Barnyardgrass.
System: barnyardgrass
Assay: Test B flooded paddy test
Type: in vivo, Echinochloa crus-galli
Details: 500 g ai/ha, Flood; scale of 0 to 100 where 0 is no effect and 100 is complete control
Protocol: Plant species in the flooded paddy test selected from rice (Oryza sativa), sedge, umbrella (small-flower umbrella sedge, Cyperus difformis), ducksalad (Heteranthera limosa), and barnyardgrass (Echinochloa crus-galli) were grown to the 2-leaf stage for testing. […] Treated plants and controls were maintained in a greenhouse for 13 to 15 days, after which time all species were compared to controls and visually evaluated. […]
Lab note: jot down the number only; don't add units.

Worked examples, 3 compounds total:
| Compound | Plant response rating, Barnyardgrass |
| --- | --- |
| Cc1cc(C2CNC(=O)C2C(=O)Nc2ccc(F)c(F)c2F)ccc1F (racemic) [Compound 142] | 75 |
| O=C1NCC(c2cnn(CC(F)(F)F)c2)C1C(=O)Nc1ccccc1F (centres unmarked) [Compound 298] | 0 |
| CC(C)c1cccc(C2CNC(=O)C2C(=O)Nc2ccccc2C(F)(F)F)c1 (centres unmarked) [Compound 320] | 45 |

Give recorded Plant response rating, Barnyardgrass. Cc1ccc(C2CNC(=O)C2C(=O)Nc2cccc(F)c2F)cc1F (racemic) [Compound 146] 80

Give recorded Plant response rating, Barnyardgrass. O=C1NCC(c2cccc3ccccc23)C1C(=O)Nc1ccccc1F (centres unmarked) [Compound 216] 0

Give recorded Plant response rating, Barnyardgrass. CSc1cccc(C2CNC(=O)C2C(=O)Nc2ccccc2Cl)c1 (centres unmarked) [Compound 291] 0

Give recorded Plant response rating, Barnyardgrass. CSc1cccc(C2CNC(=O)C2C(=O)Nc2cccc(F)c2F)c1 (centres unmarked) [Compound 289] 30

----------
Each entry below carries its reported Plant response rating, Barnyardgrass.
System: barnyardgrass
Assay: Test B flooded paddy test
Format: in vivo, Echinochloa crus-galli
Conditions: 500 g ai/ha, Flood; scale of 0 to 100 where 0 is no effect and 100 is complete control
Lab note: jot down the number only; don't add units.

Worked examples, 2 compounds total:
| Compound | Plant response rating, Barnyardgrass |
| --- | --- |
| O=C1NCC(c2ccc(Br)c(Br)c2)C1C(=O)Nc1ccccc1Cl (stereo not drawn) | 0 |
| Cc1cc(C2CNC(=O)C2C(=O)Nc2cccc(F)c2F)ccc1F (racemic) | 50 |

We now examine a further compound.
Give recorded Plant response rating, Barnyardgrass. O=C1NCC(c2ccc(Br)c(Br)c2)C1C(=O)Nc1ccc(F)cc1F (stereo not drawn) 0

----------
Tested on: velvetleaf
Assay: Test A pre-/postemergence herbicide test
Assay type: in vivo, Abutilon theophrasti
Settings: Postemergence, 125 g ai/ha; 0 to 100 scale, 0 no effect, 100 complete control
Each entry below carries its reported Plant response rating, Velvetleaf.
Lab note: jot down the number only; don't add units.

Worked examples, 3 molecules total:
| Molecule | Test System | Property Name | Test Result |
| --- | --- | --- | --- |
| O=C1NCC(c2ccc(Cl)cc2Cl)C1C(=O)Nc1ccccc1F (racemic) | velvetleaf | Plant response rating, Velvetleaf | 0 |
| O=C1NCC(c2cc(F)c(F)cc2F)C1C(=O)Nc1ccccc1F (stereo not shown) | velvetleaf | Plant response rating, Velvetleaf | 0 |
| CC1(C)NC(=O)C(C(=O)Nc2ccccc2F)C1c1ccc(F)c(F)c1 (stereo not shown) | velvetleaf | Plant response rating, Velvetleaf | 0 |

We now examine a further molecule.
Give recorded Plant response rating, Velvetleaf. O=C1NCC(c2ccc(F)c(C(F)(F)F)c2)C1C(=O)Nc1cccc(F)c1F (racemic) 20

----------
Test system: morningglory
Assay: Test C pre-/postemergence herbicide test
Format: in vivo, Ipomoea coccinea
Conditions: Preemergence, 62 g ai/ha; scale 0 to 100 (0 no effect, 100 complete control)
Each entry below carries its reported Morningglory plant response rating.
Lab note: jot down the number only; don't add units.

Worked examples, 3 compounds total:
| Compound | Property Name | Test Result |
| --- | --- | --- |
| CC(C)c1cccc(C2CNC(=O)C2C(=O)Nc2ccccc2F)c1 (stereo not shown) | Morningglory plant response rating | 40 |
| O=C1NCC(c2ccc(F)c(F)c2)C1C(=O)Nc1ccc(F)c(F)c1F (stereo not shown) | Morningglory plant response rating | 0 |
| CC(C)c1cccc(C2CNC(=O)C2C(=O)Nc2cccc(F)c2F)c1 (stereo not shown) | Morningglory plant response rating | 40 |

We now examine a further compound.
Give recorded Morningglory plant response rating. CN1CC(c2ccc(F)c(F)c2)C(C(=O)Nc2cccc(F)c2F)C1=O (stereo not shown) 0
